Measured values drawn from the supplement of paper PMC13380429 for this set.

System: Vero E6
assay protocol: cell viability relative to DMSO; higher = less toxic
condition label: 72 h; 1 nM
Answer each item with its documented cell viability.
Answers are plain numbers, in %.

[
  {
    "compound": "NC(CO)(CO)CO",
    "tested on": "Vero E6",
    "measured attribute": "cell viability",
    "assay value": 102
  },
  {
    "compound": "Cc1ccc(S(=O)(=O)NC(=O)NN2CCCCCC2)cc1 [tolazamide]",
    "tested on": "Vero E6",
    "measured attribute": "cell viability",
    "assay value": 98.9
  }
]

Provide the reported cell viability of each entry below, same order.
1. C=C1CC[C@@H]2[C@](C)(CO)[C@H](O)CC[C@@]2(C)[C@@H]1C/C=C1/C(=O)OC[C@H]1O [andrographolide]
2. O=C(O)CCCCC(CCSCc1ccccc1)SCc1ccccc1 (stereo unspecified)
3. CC(=O)OCC(=O)[C@@]1(O)CC[C@H]2[C@@H]3CCC4=CC(=O)CC[C@]4(C)[C@H]3C(=O)C[C@@]21C [cortisone-acetate]
4. CCOc1cc2ncc(C#N)c(Nc3ccc(OCc4cccc(F)c4)c(Cl)c3)c2cc1NC(=O)/C=C/CN(C)C
5. CC1(C)CCC(C)(C)c2cc(C(=O)Nc3ccc(C(=O)O)cc3)ccc21
6. O=[N+]([O-])c1cccc2cn[nH]c12
7. C[C@]12CCC(=O)C=C1CC[C@@H]1[C@@H]2CC[C@@]2(C)[C@H]1CC[C@]2(O)C(=O)CO

1. 100
2. 98.7
3. 87.9
4. 99.7
5. 103
6. 103
7. 108

Would you mind listing cell viability for each of the following compounds?
1. C=C1C[C@]23C[C@@]1(O)CC[C@H]2[C@@]12C=C[C@H](O)[C@@](C)(C(=O)O1)[C@H]2[C@@H]3C(=O)O
2. CCc1oc2ccccc2c1C(=O)c1cc(Br)c(O)c(Br)c1
3. CCC[C@@H](NC(=O)N1C(=O)C(CC)(CC)[C@@H]1Oc1ccc(C(=O)N2CCN(C)CC2)cc1)c1ccc2c(c1)OCO2
4. COc1cc(Nc2c(C#N)cnc3cc(OCCCN4CCN(C)CC4)c(OC)cc23)c(Cl)cc1Cl
5. CC1(C)[C@@H]2C[C@@H](O)[C@@](C)(O)[C@H]1C2 [2,3-cis/exo-pinanediol]
6. C[C@]12CCC(=O)C[C@@H]1CC[C@@H]1[C@@H]2CC[C@]2(C)C=CC[C@@H]12
7. O=C([O-])c1ccccn1.O=C([O-])c1ccccn1.O=C([O-])c1ccccn1.[Cr+3] [chromium-picolinate]

1: 100; 2: 103; 3: 94.8; 4: 98.7; 5: 100; 6: 96.8; 7: 102
